# System Under Test: ERK8 (Homo sapiens, UniProt Q8TD08)
# Construct: purchased DiscoveRx (KINOMEscan service)
# Sequence (Q8TD08 whole entry): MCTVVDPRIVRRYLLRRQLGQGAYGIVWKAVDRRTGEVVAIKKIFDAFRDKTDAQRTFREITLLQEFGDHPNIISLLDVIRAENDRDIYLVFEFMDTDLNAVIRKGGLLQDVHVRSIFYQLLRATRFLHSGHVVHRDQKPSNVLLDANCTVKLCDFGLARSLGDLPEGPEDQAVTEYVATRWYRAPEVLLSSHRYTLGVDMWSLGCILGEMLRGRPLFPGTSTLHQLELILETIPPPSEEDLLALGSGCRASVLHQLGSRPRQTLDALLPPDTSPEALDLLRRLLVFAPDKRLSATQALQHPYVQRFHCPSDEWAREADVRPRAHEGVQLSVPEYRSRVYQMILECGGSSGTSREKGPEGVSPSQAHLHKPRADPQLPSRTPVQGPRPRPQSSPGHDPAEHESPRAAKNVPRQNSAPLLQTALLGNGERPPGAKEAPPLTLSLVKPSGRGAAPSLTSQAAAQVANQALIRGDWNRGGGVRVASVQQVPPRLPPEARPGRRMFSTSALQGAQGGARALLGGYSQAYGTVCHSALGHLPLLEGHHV
# Assay Notes: KINOMEscan active-site competitive binding assay
# Measurement Conditions: slash = two separate measurements
Measured Property: pKd
Kindly note that pKd refers to -log10 of the concentration in mol/L and answer with the value alone.

* CNC(=O)c1cc(Oc2ccc(NC(=O)Nc3ccc(Cl)c(C(F)(F)F)c3)c(F)c2)cc[n+]1[O-] | 7.80

Alright, here's another compound for you.
Task: Give reported pKd value for NC(=O)c1cc(Oc2ccc(NC(=O)Nc3ccc(Cl)c(C(F)(F)F)c3)c(F)c2)cc[n+]1[O-]
Result: 7.59

---

# Assay Notes: Plasma pharmacokinetics in female NMRI Foxn1 nu/nu mice
# Measurement Conditions: analyte in plasma after M‐2 10 mg/kg/day oral for 5 days
Measured Property: Cmax (µM)
All answers are understood in µM, so give the number only.

• NC(=O)c1cc(Oc2ccc(NC(=O)Nc3ccc(Cl)c(C(F)(F)F)c3)c(F)c2)cc[n+]1[O-] [M‐5] = 0.7

Task: Give reported Cmax value for CNC(=O)c1cc(Oc2ccc(NC(=O)Nc3ccc(Cl)c(C(F)(F)F)c3)c(F)c2)cc[n+]1[O-] [M‐2]
Result: 12.3

---

# System Under Test: SLK (Homo sapiens, UniProt Q9H2G2)
# Sequence (Q9H2G2 whole entry): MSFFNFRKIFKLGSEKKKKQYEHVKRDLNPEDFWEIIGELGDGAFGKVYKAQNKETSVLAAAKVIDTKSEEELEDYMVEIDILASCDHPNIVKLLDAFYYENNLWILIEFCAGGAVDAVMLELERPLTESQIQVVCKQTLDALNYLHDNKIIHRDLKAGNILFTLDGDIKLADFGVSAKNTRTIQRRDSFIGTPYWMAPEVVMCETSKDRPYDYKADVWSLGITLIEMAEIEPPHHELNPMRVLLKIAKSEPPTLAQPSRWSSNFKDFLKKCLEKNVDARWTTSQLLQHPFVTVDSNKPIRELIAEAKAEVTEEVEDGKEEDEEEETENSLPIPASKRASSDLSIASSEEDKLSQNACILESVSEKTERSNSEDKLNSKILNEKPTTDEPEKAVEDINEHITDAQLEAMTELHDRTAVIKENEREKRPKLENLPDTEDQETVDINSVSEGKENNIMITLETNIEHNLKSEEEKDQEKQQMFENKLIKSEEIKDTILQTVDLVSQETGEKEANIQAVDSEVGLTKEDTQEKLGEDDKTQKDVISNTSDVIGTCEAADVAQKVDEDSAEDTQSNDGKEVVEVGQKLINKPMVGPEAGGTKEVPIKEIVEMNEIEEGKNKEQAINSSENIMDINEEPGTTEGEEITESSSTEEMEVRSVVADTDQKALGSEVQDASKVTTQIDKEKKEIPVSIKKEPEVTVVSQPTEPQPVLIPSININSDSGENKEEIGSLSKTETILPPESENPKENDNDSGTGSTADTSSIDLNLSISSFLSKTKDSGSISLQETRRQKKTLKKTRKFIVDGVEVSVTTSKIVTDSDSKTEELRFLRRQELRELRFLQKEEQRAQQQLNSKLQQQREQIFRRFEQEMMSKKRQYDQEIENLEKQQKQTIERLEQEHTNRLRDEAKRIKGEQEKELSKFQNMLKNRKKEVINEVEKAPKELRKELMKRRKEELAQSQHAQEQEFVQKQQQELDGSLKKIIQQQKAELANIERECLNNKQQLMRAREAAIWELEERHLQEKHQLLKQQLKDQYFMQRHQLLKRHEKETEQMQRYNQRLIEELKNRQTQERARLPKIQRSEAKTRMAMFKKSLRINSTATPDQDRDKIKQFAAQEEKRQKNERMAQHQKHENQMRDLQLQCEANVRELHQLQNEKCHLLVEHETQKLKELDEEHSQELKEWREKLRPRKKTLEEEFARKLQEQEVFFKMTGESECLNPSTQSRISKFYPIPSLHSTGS
# Assay Notes: KINOMEscan active-site competitive binding assay
# Measurement Conditions: slash = two separate measurements
Measured Property: pKd
Kindly note that pKd refers to -log10 of the concentration in mol/L and answer with the value alone.

- CNC(=O)c1cc(Oc2ccc(NC(=O)Nc3ccc(Cl)c(C(F)(F)F)c3)c(F)c2)cc[n+]1[O-]: 7.19

Alright, here's another compound for you.
Task: Give reported pKd value for NC(=O)c1cc(Oc2ccc(NC(=O)Nc3ccc(Cl)c(C(F)(F)F)c3)c(F)c2)cc[n+]1[O-]
Result: 7.00

---

Attribute: pKd
# System Under Test: FRK (Homo sapiens, UniProt P42685)
# Sequence (P42685 whole entry): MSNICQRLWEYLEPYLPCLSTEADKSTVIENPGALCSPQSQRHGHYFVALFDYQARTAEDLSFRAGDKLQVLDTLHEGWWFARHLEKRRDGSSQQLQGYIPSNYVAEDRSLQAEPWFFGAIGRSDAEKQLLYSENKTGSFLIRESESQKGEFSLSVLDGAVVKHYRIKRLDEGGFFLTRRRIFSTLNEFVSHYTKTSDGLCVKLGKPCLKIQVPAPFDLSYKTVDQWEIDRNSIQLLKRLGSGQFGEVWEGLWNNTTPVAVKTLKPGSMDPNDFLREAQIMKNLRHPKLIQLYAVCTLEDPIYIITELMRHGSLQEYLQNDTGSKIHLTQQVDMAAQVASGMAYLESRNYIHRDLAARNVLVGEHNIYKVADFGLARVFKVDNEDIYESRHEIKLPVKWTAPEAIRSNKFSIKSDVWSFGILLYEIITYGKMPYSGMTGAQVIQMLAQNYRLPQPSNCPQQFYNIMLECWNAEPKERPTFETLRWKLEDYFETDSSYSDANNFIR
# Assay Notes: KINOMEscan active-site competitive binding assay
# Measurement Conditions: slash = two separate measurements
Kindly note that pKd refers to -log10 of the concentration in mol/L and answer with the value alone.

- NC(=O)c1cc(Oc2ccc(NC(=O)Nc3ccc(Cl)c(C(F)(F)F)c3)c(F)c2)cc[n+]1[O-] [M‐5]: 7.62

Alright, here's another compound for you.
Task: Give reported pKd value for CNC(=O)c1cc(Oc2ccc(NC(=O)Nc3ccc(Cl)c(C(F)(F)F)c3)c(F)c2)cc[n+]1[O-] [M‐2]
Result: 7.38

---

# System Under Test: KIT^V559D (Homo sapiens, UniProt P10721, V559D)
# Sequence (P10721 26-976 V559D): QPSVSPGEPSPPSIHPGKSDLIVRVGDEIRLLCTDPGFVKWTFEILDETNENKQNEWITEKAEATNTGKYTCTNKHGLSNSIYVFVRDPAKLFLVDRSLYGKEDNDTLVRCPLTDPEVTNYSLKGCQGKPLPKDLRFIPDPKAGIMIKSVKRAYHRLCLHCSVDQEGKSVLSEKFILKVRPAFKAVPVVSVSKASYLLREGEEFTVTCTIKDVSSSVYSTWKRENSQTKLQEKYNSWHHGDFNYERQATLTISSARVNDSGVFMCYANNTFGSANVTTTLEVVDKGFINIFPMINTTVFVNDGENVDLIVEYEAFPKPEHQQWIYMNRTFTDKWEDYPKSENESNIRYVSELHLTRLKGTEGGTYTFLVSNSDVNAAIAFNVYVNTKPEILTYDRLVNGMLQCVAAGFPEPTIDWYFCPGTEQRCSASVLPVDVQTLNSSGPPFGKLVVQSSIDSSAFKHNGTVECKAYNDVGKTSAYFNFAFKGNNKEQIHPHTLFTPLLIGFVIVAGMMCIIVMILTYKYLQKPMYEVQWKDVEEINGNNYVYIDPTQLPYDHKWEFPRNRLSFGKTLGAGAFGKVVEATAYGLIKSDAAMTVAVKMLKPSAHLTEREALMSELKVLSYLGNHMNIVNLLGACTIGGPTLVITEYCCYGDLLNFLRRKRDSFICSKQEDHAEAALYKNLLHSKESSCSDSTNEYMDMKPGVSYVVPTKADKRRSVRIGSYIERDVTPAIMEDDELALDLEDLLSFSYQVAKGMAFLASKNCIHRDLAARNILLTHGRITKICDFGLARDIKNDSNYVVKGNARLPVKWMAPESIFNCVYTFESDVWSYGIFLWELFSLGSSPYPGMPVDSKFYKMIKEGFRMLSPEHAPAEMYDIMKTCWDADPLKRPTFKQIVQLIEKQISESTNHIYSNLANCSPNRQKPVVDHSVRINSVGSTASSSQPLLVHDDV
# Assay Notes: KINOMEscan active-site competitive binding assay
Measured Property: Kd (nM)
All answers are understood in nM, so give the number only.

• CNC(=O)c1cc(Oc2ccc(NC(=O)Nc3ccc(Cl)c(C(F)(F)F)c3)c(F)c2)cc[n+]1[O-] = 12

Alright, here's another compound for you.
Task: Tell me Kd of NC(=O)c1cc(Oc2ccc(NC(=O)Nc3ccc(Cl)c(C(F)(F)F)c3)c(F)c2)cc[n+]1[O-] when tested on KIT^V559D (Homo sapiens, UniProt P10721, V559D).
Result: 9.6

---

Attribute: pIC50
# System Under Test: KIT (Homo sapiens)
# Sequence (P10721 26-976): as the sequence (P10721 26-976 V559D) above, with D534V counted along it
# Assay Notes: Cellular kinase phosphorylation assay, M07e/KIT
# Measurement Conditions: M07e/KIT cells; without serum; read-out: Mean ± SD IC50
Kindly note that pIC50 refers to -log10 of the concentration in mol/L and answer with the value alone.

• CNC(=O)c1cc(Oc2ccc(NC(=O)Nc3ccc(Cl)c(C(F)(F)F)c3)c(F)c2)cc[n+]1[O-] = 7.89

Alright, here's another compound for you.
Task: Give reported pIC50 value for NC(=O)c1cc(Oc2ccc(NC(=O)Nc3ccc(Cl)c(C(F)(F)F)c3)c(F)c2)cc[n+]1[O-]
Result: 6.96

All values here come from paper PMC5119973.
